Origin of measurements: ChEMBL document CHEMBL3112508

System: Rattus norvegicus
Assay: AUC in rat at 10 mg/kg, po after 6 hrs
Format: ADME, organism-based, Plasma
Design: time < 6 hr, dose 10 mg/kg, route oral
Conditions: in vivo
Attribute: AUC

[
  {
    "CHEMICAL_STRING": "CC[C@H]1CN(c2ncc(-c3nnc(NC)o3)nc2C)[C@H](C)CN1C1CCN(C(=O)c2ccc(Cl)cc2)CC1",
    "UNIT": "uM.hr/ml",
    "AUC": 2.4
  },
  {
    "CHEMICAL_STRING": "CCNc1nnc(-c2cnc(N3C[C@H](CC)N(C4CCN(C(=O)c5ccc(Cl)cc5)CC4)C[C@H]3C)c(C(F)(F)F)n2)o1",
    "UNIT": "uM.hr/ml",
    "AUC": 2.3
  },
  {
    "CHEMICAL_STRING": "CC[C@H]1CN(c2ncc(-c3nnc[nH]3)nc2C)[C@H](C)CN1C1CCN(C(=O)c2ccc(Cl)cc2)CC1",
    "UNIT": "uM.hr/ml",
    "AUC": 4.9
  },
  {
    "CHEMICAL_STRING": "CC[C@H]1CN(c2ncc(-c3ncc[nH]3)nc2C)[C@H](C)CN1C1CCN(C(=O)c2ccc(Cl)nc2N)CC1",
    "UNIT": "uM.hr/ml",
    "AUC": 0.3
  },
  {
    "CHEMICAL_STRING": "CCNc1nnc(-c2cnc(N3CCN(C4CCN(C(=O)c5ccc(Cl)cc5)CC4)[C@@H](CC)C3)c(C)n2)o1",
    "UNIT": "uM.hr/ml",
    "AUC": 0.9
  },
  {
    "CHEMICAL_STRING": "CCNc1nnc(-c2cnc(N3C[C@H](CC)N(C4CCN(C(=O)c5ccc(Cl)nc5N)CC4)C[C@H]3C)c(C)n2)o1",
    "UNIT": "uM.hr/ml",
    "AUC": 0.8
  },
  {
    "CHEMICAL_STRING": "CC[C@H]1CN(c2ncc(-c3ncc[nH]3)nc2C)[C@H](C)CN1C1CCN(C(=O)c2ccc(Cl)cc2)CC1",
    "UNIT": "uM.hr/ml",
    "AUC": 0.8
  },
  {
    "CHEMICAL_STRING": "CCNc1nnc(-c2cnc(N3CCN(C4CCN(C(=O)c5ccc(Cl)nc5N)CC4)[C@@H](CC)C3)c(Cl)n2)o1",
    "UNIT": "uM.hr/ml",
    "AUC": 1.4
  },
  {
    "CHEMICAL_STRING": "CCNc1nnc(-c2cnc(N3C[C@H](CC)N(C4CCN(C(=O)c5ccc(Cl)cc5)CC4)C[C@H]3C)c(C)n2)o1",
    "UNIT": "uM.hr/ml",
    "AUC": 3.3
  }
]

###

Test system: Rattus norvegicus
Test: AUC in rat at 10 mg/kg, po
Assay type: ADME, organism-based, Plasma
Set-up: dose 10 mg/kg, route oral
Conditions: in vivo
Criterion: AUC strictly under 20 uM.hr/ml. Met: label 1. Not met: label 0.

[
  {
    "CHEMICAL_STRING": "CC[C@H]1CN(c2nc(N)c(-c3nnc(NC)o3)nc2Cl)CCN1C1CCN(C(=O)c2ccc(Cl)nc2N)CC1",
    "CATEGORY_LABEL": "label 1"
  },
  {
    "CHEMICAL_STRING": "CCNc1nnc(-c2cnc(N3C[C@H](CC)N(C4CCN(C(=O)c5ccc(Cl)nc5N)CC4)C[C@H]3C)c(C(F)(F)F)n2)o1",
    "CATEGORY_LABEL": "label 0"
  },
  {
    "CHEMICAL_STRING": "CC[C@H]1CN(c2nc(N)c(-c3nnc(C)o3)nc2Cl)CCN1C1CCN(C(=O)c2ccc(Cl)nc2N)CC1",
    "CATEGORY_LABEL": "label 1"
  },
  {
    "CHEMICAL_STRING": "CC[C@H]1CN(c2ncc(-c3nnc[nH]3)nc2C)[C@H](C)CN1C1CCN(C(=O)c2ccc(Cl)cc2)CC1",
    "CATEGORY_LABEL": "label 0"
  },
  {
    "CHEMICAL_STRING": "CCNc1nnc(-c2cnc(N3CCN(C4CCN(C(=O)c5ccc(Cl)nc5N)CC4)[C@@H](CC)C3)c(Cl)n2)o1",
    "CATEGORY_LABEL": "label 0"
  },
  {
    "CHEMICAL_STRING": "CC[C@H]1CN(c2nc(N)c(-c3nnc(CO)o3)nc2Cl)CCN1C1CCN(C(=O)c2ccc(Cl)nc2N)CC1",
    "CATEGORY_LABEL": "label 1"
  },
  {
    "CHEMICAL_STRING": "CCNc1nnc(-c2nc(Cl)c(N3CCN(C4CCN(C(=O)c5ccc(Cl)nc5N)CC4)[C@@H](CC)C3)nc2N)o1",
    "CATEGORY_LABEL": "label 1"
  },
  {
    "CHEMICAL_STRING": "CC[C@H]1CN(c2nc(N)c(-c3nnc(NCCO)o3)nc2Cl)CCN1C1CCN(C(=O)c2ccc(Cl)nc2N)CC1",
    "CATEGORY_LABEL": "label 1"
  }
]
